- TEST_TARGET: SARS-CoV-2 RBD (RBD-2) (SARS-CoV-2)
- TEST_SUMMARY: SPR, Fc-captured IgG
EXPERIMENTAL_ENDPOINT: koff (s⁻¹)
Answers are plain numbers, in s⁻¹.

Give koff for L12.bP11C10 (antibody, V domains shown, human IgG1) VH: QVQLVQSGAEVKKPGASVKVSCKASGYIFSGYYMHWVRQAPGQGLEWMGWISPDSGGTNYAQKFQGRVTMTRDTSITTGYMELSGLRSDDTAVYYCARGPRYSGTYFDYWGQGTLVTISS VL: QSALTQPTSVSGSPGQSITISCTGTSSDVGGYNYVSWYQQHPGKAPKLIIYDVSNRPSGVSNRFSGSKSGNTASLTISGLQAEDEADYYCSSYTVSSTQVFGGGTKLTVL
0.126
